Values compiled from PubChem BioAssay (NCI).

Recorded TGI for the following compounds
Tested on: SNB-19 CNS
Procedure summary: NCI tumour cell line growth inhibition, 48 h
Quantity measured: TGI

{"Compound": "O=S(=O)([O-])c1cccc2cccc(N=Cc3ccccc3[O-])c12.O=S(=O)([O-])c1cccc2cccc(N=Cc3ccccc3[O-])c12.[O]=[U]=[O]", "Assayed system": "SNB-19 CNS", "Val": "> 100 µM"}
{"Compound": "Nc1ccc2c(SCCSc3c4ccccc4nc4cc(N)ccc34)c3ccccc3nc2c1", "Assayed system": "SNB-19 CNS", "Val": "> 100 µM"}
{"Compound": "C1CC[N-]CC1.C1CC[N-]CC1.C1CC[N-]CC1.C1CC[N-]CC1.[Cl][Rh][Cl]", "Assayed system": "SNB-19 CNS", "Val": "> 100 µM"}
{"Compound": "COc1ccc(Nc2nc(NNC(=O)Cc3ccccc3)nc(NNC(=O)c3ccncc3)n2)cc1", "Assayed system": "SNB-19 CNS", "Val": "> 10 µM"}
{"Compound": "COc1cc2oc(=O)ccc2cc1C1OC(=O)C2OC21C (configuration not stated)", "Assayed system": "SNB-19 CNS", "Val": "> 100 µM"}
{"Compound": "Cc1ccc(NC(=O)CC2C(=O)Nc3ccccc3S2=O)cc1C (configuration not stated)", "Assayed system": "SNB-19 CNS", "Val": "> 100 µM"}
{"Compound": "CCCCCCCCCCC/C(=N/O)c1ccc(O)c2ncccc12", "Assayed system": "SNB-19 CNS", "Val": "> 100 µM"}
{"Compound": "OCc1cn(Cc2cccc(Cl)c2)c2ccccc12", "Assayed system": "SNB-19 CNS", "Val": "> 96.5 µM"}
{"Compound": "COC(=O)C1=C(C)N(NC(N)=O)C2(N)N(NC(N)=O)C(C)=C(C(=O)OC)C12C(=O)OC (configuration not stated)", "Assayed system": "SNB-19 CNS", "Val": "> 100 µM"}
{"Compound": "CC1OC(n2ncc(=O)[nH]c2=O)C=CC1=O (configuration not stated)", "Assayed system": "SNB-19 CNS", "Val": "> 100 µM"}
{"Compound": "O=C(NCCNCCO)N/N=C/c1ccccc1", "Assayed system": "SNB-19 CNS", "Val": "> 100 µM"}
{"Compound": "O=C1CCc2cc3c(cc21)C(C(=O)O)CC3 (configuration not stated)", "Assayed system": "SNB-19 CNS", "Val": "> 100 µM"}
{"Compound": "O=C1C(Cl)C(c2cccc(O)c2)N1n1cnc2ccccc2c1=O (configuration not stated)", "Assayed system": "SNB-19 CNS", "Val": "> 100 µM"}
{"Compound": "COc1ccc2c3c([nH]c2c1)-c1nc2ccccc2c(=O)n1CC3", "Assayed system": "SNB-19 CNS", "Val": "> 25 µM"}
{"Compound": "CCC(=O)Nc1ccc(N2C(=O)/C(=C/c3ccc(O)c(OC)c3)N=C2c2ccccc2)cc1", "Assayed system": "SNB-19 CNS", "Val": "> 100 µM"}
{"Compound": "C#Cc1cccc(Nc2ncnc3cc(OCCOC)c(OCCOC)cc23)c1", "Assayed system": "SNB-19 CNS", "Val": "92 µM"}
{"Compound": "COc1ccc(C2C3=CONC3CC3CCCCC32)cc1 (configuration not stated)", "Assayed system": "SNB-19 CNS", "Val": "> 100 µM"}
{"Compound": "O=[N+]([O-])c1cccc([N+](=O)[O-])c1Cl", "Assayed system": "SNB-19 CNS", "Val": "33.2 µM"}
{"Compound": "CC(=O)Nc1ccc(/C=C/[N+](=O)[O-])cc1", "Assayed system": "SNB-19 CNS", "Val": "20.5 µM"}
{"Compound": "N#Cc1c(C(=O)c2ccccc2)cnn1-c1ccccc1", "Assayed system": "SNB-19 CNS", "Val": "> 25 µM"}
{"Compound": "Cc1ccc2c(c1)nc(C(=O)c1ccco1)c(C(F)(F)F)[n+]2[O-]", "Assayed system": "SNB-19 CNS", "Val": "> 100 µM"}
{"Compound": "COC(CC1(CCNc2ccccc2)C(=O)N(COCC[Si](C)(C)C)c2ccccc21)OC (configuration not stated)", "Assayed system": "SNB-19 CNS", "Val": "33.1 µM"}
{"Compound": "Cc1c(/C=N/NS(=O)(=O)c2ccccc2)no[n+]1[O-]", "Assayed system": "SNB-19 CNS", "Val": "> 100 µM"}
{"Compound": "O=C(O)C(=Cc1ccnc2ccccc12)C(=O)O", "Assayed system": "SNB-19 CNS", "Val": "> 100 µM"}
{"Compound": "Cc1sc2nc3n(sc4nc5sc(C)c(C)c5c(=O)n43)c(=O)c2c1C", "Assayed system": "SNB-19 CNS", "Val": "> 100 µM"}
{"Compound": "O=Cc1c(-c2cc(O)ccc2O)nc2sccn12", "Assayed system": "SNB-19 CNS", "Val": "> 100 µM"}
{"Compound": "CCCCCCCCCCC[N+]1(Cc2ccccc2)CC2CCN(Cc3ccccc3)CC2C1 (configuration not stated)", "Assayed system": "SNB-19 CNS", "Val": "1.49 µM"}
{"Compound": "CCOC(=O)/C(C1=N[C@H](C(=O)OCC)CS1)=C(\\O)c1ccccc1", "Assayed system": "SNB-19 CNS", "Val": "> 100 µM"}
{"Compound": "NC(=O)c1cnc(N[C@@H]2CCCC[C@@H]2N)nc1Nc1cccc(-n2nccn2)c1", "Assayed system": "SNB-19 CNS", "Val": "25 µM"}
{"Compound": "COc1ccc(/C=C/C(=O)c2cc3c(N)c(C(=O)Nc4ccccc4Cl)sc3nc2C)cc1", "Assayed system": "SNB-19 CNS", "Val": "23.1 µM"}
{"Compound": "Cc1ccccc1-c1c(N)nc(NC#N)nc1C(=O)Nc1ccccc1", "Assayed system": "SNB-19 CNS", "Val": "> 100 µM"}
{"Compound": "O=c1cc(C(F)(F)F)c2cc3c(cc2o1)NCCC3", "Assayed system": "SNB-19 CNS", "Val": "91.7 µM"}
{"Compound": "OCCCCC#Cc1ccccc1C#Cc1ccccc1", "Assayed system": "SNB-19 CNS", "Val": "37.2 µM"}
{"Compound": "COc1ccc(OC)c(-c2cn3c(n2)sc2ccccc23)c1", "Assayed system": "SNB-19 CNS", "Val": "> 100 µM"}
{"Compound": "CCCC(CC)c1cc(O)c(O)cc1C(CC)CCC (configuration not stated)", "Assayed system": "SNB-19 CNS", "Val": "> 10 µM"}
{"Compound": "CCOP(=O)(OCC)C(NC(c1ccccc1)c1ccccc1)c1ccccc1 (configuration not stated)", "Assayed system": "SNB-19 CNS", "Val": "> 100 µM"}
{"Compound": "O=C(O)c1cc(Nc2c(O)c3c(c(O)c2Cl)C(=O)C=CC3=O)ccc1O", "Assayed system": "SNB-19 CNS", "Val": "> 10 µM"}
